The reported numbers originate from patent US20160244437A1.

Test system: human and animal plasma
Assay: Determination of anticoagulatory activity: activated partial thromboplastin time (aPTT) in plasma
Settings: concentration of test substance which brings about a 1.5-fold extension of the aPTT; plasma in vitro, C.K. Prest kit
Structures can show the parent of a compound that is named as a salt.
assay endpoint: aPTT (µmol/L)

INSERT INTO results (compound, assay_endpoint, measurement_unit, quantitative_result) VALUES
  ('CC(=O)Nc1ncc(-c2cccc(C[C@H](NC(=O)[C@H]3CC[C@H](CN)CC3)C(=O)Nc3ccc(-c4nnn[nH]4)cc3)c2)c(C)n1 [Example 94, hydrochloride]', 'aPTT', 'µmol/L', 0.23),
  ('Cc1ccc2[nH]ncc2c1-c1cccc(C[C@H](NC(=O)[C@H]2CC[C@H](CN)CC2)C(=O)Nc2ccc(-c3nnn[nH]3)cc2)c1 [Example 83, hydrochloride]', 'aPTT', 'µmol/L', 0.17),
  ('Cc1ccc(S(=O)(=O)N(C)C)cc1-c1cccc(C[C@H](NC(=O)[C@H]2CC[C@H](CN)CC2)C(=O)Nc2ccc3[nH]c(=O)[nH]c3c2)c1 [Example 44, hydrochloride]', 'aPTT', 'µmol/L', 0.28),
  ('Cc1ccc(S(=O)(=O)NCc2ccccc2)cc1-c1cccc(C[C@H](NC(=O)[C@H]2CC[C@H](CN)CC2)C(=O)Nc2ccc3[nH]c(=O)[nH]c3c2)c1 [Example 12, hydrochloride]', 'aPTT', 'µmol/L', 0.3),
  ('CN1CCN(C(=O)c2ccc(-c3cccc(C[C@H](NC(=O)[C@H]4CC[C@H](CN)CC4)C(=O)Nc4ccc(-c5nnc(Cl)[nH]5)cc4)c3)cc2)CC1 [Example 27, hydrochloride]', 'aPTT', 'µmol/L', 0.3),
  ('NC[C@H]1CC[C@H](C(=O)N[C@@H](Cc2cccc(-c3ccc(C(=O)NCCN4CCCCC4)cc3)c2)C(=O)Nc2ccc(-c3nnn[nH]3)cc2)CC1 [Example 37, hydrochloride]', 'aPTT', 'µmol/L', 0.19),
  ('Cc1cc(C(=O)NC2C3CNCC32)ccc1-c1cccc(C[C@H](NC(=O)C2CCC(CN)CC2)C(=O)Nc2ccc(-c3nnn[nH]3)cc2)c1 (stereo partly drawn) [Example 33, hydrochloride]', 'aPTT', 'µmol/L', 0.08),
  ('CN(C)CCCOc1ccc(-c2cccc(C[C@H](NC(=O)[C@H]3CC[C@H](CN)CC3)C(=O)Nc3ccc(-c4nnc(Cl)[nH]4)cc3)c2)cn1 [Example 90, hydrochloride]', 'aPTT', 'µmol/L', 0.08),
  ('NC[C@H]1CC[C@H](C(=O)N[C@@H](Cc2cccc(-c3cccc(S(=O)(=O)NC4CC4)c3)c2)C(=O)Nc2ccc(-c3nnn[nH]3)cc2)CC1 [Example 6, hydrochloride]', 'aPTT', 'µmol/L', 0.27),
  ('NC[C@H]1CC[C@H](C(=O)N[C@@H](Cc2cccc(-c3cccc(S(N)(=O)=O)c3)c2)C(=O)Nc2ccc(-c3nnn[nH]3)cc2)CC1 [Example 5, hydrochloride]', 'aPTT', 'µmol/L', 0.23),
  ('CN(C)c1ncc(-c2cccc(C[C@H](NC(=O)[C@H]3CC[C@H](CN)CC3)C(=O)Nc3ccc(-c4nnc(Cl)[nH]4)cc3)c2)cn1 [Example 93, hydrochloride]', 'aPTT', 'µmol/L', 0.48),
  ('CN1CCN(C(=O)c2ccc(-c3cccc(C[C@H](NC(=O)[C@H]4CC[C@H](CN)CC4)C(=O)Nc4ccc(-c5nnn[nH]5)cc4)c3)cc2)CC1 [Example 46, hydrochloride]', 'aPTT', 'µmol/L', 0.32),
  ('COc1ccc(C[C@H](NC(=O)[C@H]2CC[C@H](CN)CC2)C(=O)Nc2ccc(-c3nn[nH]n3)cc2)cc1-c1ccc(C(=O)NC2CCNCC2)cc1C [Example 56, hydrochloride]', 'aPTT', 'µmol/L', 0.28),
  ('Cc1ccc(C[C@H](NC(=O)[C@H]2CC[C@H](CN)CC2)C(=O)Nc2ccc(-c3nnn[nH]3)cc2)cc1-c1cccc(C(=O)NC2CCN(C(C)C)CC2)c1 [Example 19, hydrochloride]', 'aPTT', 'µmol/L', 0.14),
  ('Cc1ccc(N)cc1-c1cccc(C[C@H](NC(=O)[C@H]2CC[C@H](CN)CC2)C(=O)Nc2ccc(-c3nnn[nH]3)cc2)c1 [Example 103, hydrochloride]', 'aPTT', 'µmol/L', 0.1),
  ('Cc1ccc(S(=O)(=O)N(C)C)cc1-c1cccc(C[C@H](NC(=O)[C@H]2CC[C@H](CN)CC2)C(=O)Nc2ccc(-c3nnn[nH]3)cc2)c1 [Example 4, hydrochloride]', 'aPTT', 'µmol/L', 0.21),
  ('Cc1ccc(S(=O)(=O)N2CCOCC2)cc1-c1cccc(C[C@H](NC(=O)[C@H]2CC[C@H](CN)CC2)C(=O)Nc2ccc(-c3noc(=O)[nH]3)cc2)c1 [Example 52, hydrochloride]', 'aPTT', 'µmol/L', 0.06),
  ('Cc1cnccc1-c1cccc(C[C@H](NC(=O)[C@H]2CC[C@H](CN)CC2)C(=O)Nc2ccc(-c3nnn[nH]3)cc2)c1 [Example 80, hydrochloride]', 'aPTT', 'µmol/L', 0.25),
  ('CN(C)CCCOc1ccc(-c2cccc(C[C@H](NC(=O)[C@H]3CC[C@H](CN)CC3)C(=O)Nc3ccc(-c4nc(C(F)(F)C(F)(F)C(=O)O)n[nH]4)cc3)c2)cn1 [Example 109, hydrochloride]', 'aPTT', 'µmol/L', 0.16),
  ('CN(C)CCCOc1ccc(-c2cccc(C[C@H](NC(=O)[C@H]3CC[C@H](CN)CC3)C(=O)Nc3ccc(-c4nnn[nH]4)cc3)c2)cn1 [Example 59, hydrochloride]', 'aPTT', 'µmol/L', 0.19),
  ('CON(C)C(=O)c1ccc(F)c(-c2cccc(C[C@H](NC(=O)[C@H]3CC[C@H](CN)CC3)C(=O)Nc3ccc(-c4nnn[nH]4)cc3)c2)c1 [Example 45, hydrochloride]', 'aPTT', 'µmol/L', 0.3);
